# System: MCF7
# ASSAY_NOTES: In vitro cytotoxicity against MCF-7 cancer cell lines.
# Assay type: functional
# EXPERIMENTAL_CONDITIONS: Homo sapiens, read-out: TD50 (the source's name)
# log10 of CC50 values compiled below
MEASURED_PROPERTY: log10 of CC50 (log10 of the value in µg/mL)

>>> print(df.to_string())
                                   compound  measurement
0  COCn1cc(NC(=O)c2cc(NC(=O)c3cc(NC4=CC5=NCCc6cn(C)c(c65)C4=O)cn3COC)cn2COC)cc1C(=O)NCCCN(C)C        -0.70
1  COCn1cc(NC2=CC3=NCCc4cn(C)c(c43)C2=O)cc1C(=O)NCCCN(C)C        -0.40
2  COCn1cc(NC(=O)c2cc(NC3=CC4=NCCc5cn(C)c(c54)C3=O)cn2COC)cc1C(=O)NCCCN(C)C        -0.30
3  CCOC(=O)c1cc(NC(=O)c2cc(NC3=CC4=NCCc5cn(C)c(c54)C3=O)cn2COC)cn1COC         0.52
4  CCOC(=O)c1cc(NC2=CC3=NCCc4cn(C)c(c43)C2=O)cn1COC        -0.30
5  CCOC(=O)c1cc(NC(=O)c2cc(NC(=O)c3cc(NC4=CC5=NCCc6cn(C)c(c65)C4=O)cn3COC)cn2COC)cn1COC         0.67
6  COc1cccc2c1C(=O)c1c(O)c3c(c(O)c1C2=O)C[C@@](O)(C(=O)CO)C[C@@H]3O[C@H]1C[C@H](N)[C@H](O)[C@H](C)O1 [DOXORUBICIN]        -0.70
